# Tested on: PRKACA (mouse)
# Experimental Protocol: split-luciferase competition binding
# Condition Summary: compound 10.0 µM; accession and sequence are those of the human protein
Lab note: compare inhibition against 2%. Equal or greater, write TRUE. Smaller, write FALSE.

O=C1c2ccccc2-c2n[nH]c3cccc1c23 :: FALSE
COc1cc2ncn(-c3cc(OCc4ccccc4C(F)(F)F)c(C(N)=O)s3)c2cc1OC :: TRUE
NC(=O)c1ccc(-c2nc(-c3ccccn3)c(-c3ccc4c(c3)OCO4)[nH]2)cc1 :: FALSE
O=C1NC(=O)C(c2ccccc2[N+](=O)[O-])=C1Nc1ccc(O)c(Cl)c1 :: FALSE
CC(C)[C@H](CO)Nc1nc(Nc2ccc(C(=O)O)c(Cl)c2)c2ncn(C(C)C)c2n1 :: TRUE

Request: # bool: inhibition of C/C(O)=C(\C#N)C(=O)Nc1cc(Br)ccc1Br >= 2%
Result: TRUE

###

# Target: SGK2 (human) (UniProt Q9HBY8)
# Sequence (Q9HBY8 whole entry, looked up): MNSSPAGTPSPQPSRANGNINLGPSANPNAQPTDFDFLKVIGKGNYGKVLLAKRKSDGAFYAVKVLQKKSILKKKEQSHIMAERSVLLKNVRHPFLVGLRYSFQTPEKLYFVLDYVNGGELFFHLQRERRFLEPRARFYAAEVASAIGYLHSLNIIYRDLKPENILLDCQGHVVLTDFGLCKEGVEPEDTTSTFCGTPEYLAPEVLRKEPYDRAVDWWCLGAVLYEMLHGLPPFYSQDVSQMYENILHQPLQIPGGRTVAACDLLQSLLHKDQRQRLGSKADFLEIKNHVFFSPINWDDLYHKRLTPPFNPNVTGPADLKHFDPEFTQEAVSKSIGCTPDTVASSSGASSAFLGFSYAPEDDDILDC
# Experimental Protocol: split-luciferase competition binding
# Condition Summary: compound 10.0 µM
Here the recorded inhibition is given for each entry.
The response must be a number in % with no trailing unit.

Request: Entry Cc1ccc(NC(=O)c2cccc(N(C)C)c2)cc1NC(=O)c1ccc(O)cc1 has what inhibition?
Result: 0

Request: Repeat for the following compound: CO[C@@H]1[C@H](N(C)C(=O)c2ccccc2)C[C@H]2O[C@]1(C)n1c3ccccc3c3c4c(c5c6ccccc6n2c5c31)C(=O)NC4
Result: 22

Request: Repeat for the following compound: Cn1cc(C2=C(c3ccc(Cl)cc3Cl)C(=O)NC2=O)c2ccccc21
Result: 0

Request: Repeat for the following compound: CN1CC[C@H](c2c(O)cc(O)c3c(=O)cc(-c4ccccc4Cl)oc23)[C@H](O)C1
Result: 0

Request: Repeat for the following compound: COc1nccc(-c2c(-c3ccc(F)cc3)ncn2[C@H]2CC[C@H](O)CC2)n1
Result: 0

###

# Target: RPS6KA2 KD1 (human)
# Experimental Protocol: split-luciferase competition binding
# Condition Summary: compound 10.0 µM
Lab note: compare inhibition against 3%. Equal or greater, write T. Smaller, write F.

NC(=O)c1sc(-c2ccsc2)cc1N :: F
O=C(NC(NC(=S)Nc1ccc(F)c([N+](=O)[O-])c1)C(Cl)(Cl)Cl)C(c1ccccc1)c1ccccc1 (centres undefined) :: F
CN1CCC(Nc2ncc3ncnc(Nc4ccc(F)c(Cl)c4)c3n2)CC1 :: T
Cc1cc(F)c(Nc2ncnc3cc(OCc4ccccc4)ccc23)cc1O :: F
C/C(O)=C(\C#N)C(=O)Nc1cc(Br)ccc1Br :: F
COc1cc2ncnc(Nc3ccc(Cl)cc3F)c2cc1OC :: F

Request: # bool: inhibition of O=C(c1ccc(Nc2nccc(-c3cc4ccccc4s3)n2)cc1)N1CCC(N2CCCC2)CC1 >= 3%
Result: F

Request: Repeat for the following compound: Brc1c(Br)c(Br)c2[nH]nnc2c1Br
Result: T

Request: Repeat for the following compound: Cc1[nH]c(/C=C2\C(=O)Nc3ccc(S(=O)(=O)Cc4c(Cl)cccc4Cl)cc32)c(C)c1C(=O)N1CCC[C@@H]1CN1CCCC1
Result: T

Request: Repeat for the following compound: COc1cc2ncn(-c3cc(OCc4ccccc4C(F)(F)F)c(C(N)=O)s3)c2cc1OC
Result: T

Request: Repeat for the following compound: C=CC(=O)c1ccc2ccccc2c1
Result: F

Request: Repeat for the following compound: COc1ccc(Cl)cc1NC(=O)Nc1cc(C)nc2ccccc12
Result: F

Request: Repeat for the following compound: Cn1cc(C2=C(c3cn(CCCSC(=N)N)c4ccccc34)C(=O)NC2=O)c2ccccc21
Result: T
